Target: EPHB1 (UniProt P54762)
Sequence (P54762 whole entry, looked up): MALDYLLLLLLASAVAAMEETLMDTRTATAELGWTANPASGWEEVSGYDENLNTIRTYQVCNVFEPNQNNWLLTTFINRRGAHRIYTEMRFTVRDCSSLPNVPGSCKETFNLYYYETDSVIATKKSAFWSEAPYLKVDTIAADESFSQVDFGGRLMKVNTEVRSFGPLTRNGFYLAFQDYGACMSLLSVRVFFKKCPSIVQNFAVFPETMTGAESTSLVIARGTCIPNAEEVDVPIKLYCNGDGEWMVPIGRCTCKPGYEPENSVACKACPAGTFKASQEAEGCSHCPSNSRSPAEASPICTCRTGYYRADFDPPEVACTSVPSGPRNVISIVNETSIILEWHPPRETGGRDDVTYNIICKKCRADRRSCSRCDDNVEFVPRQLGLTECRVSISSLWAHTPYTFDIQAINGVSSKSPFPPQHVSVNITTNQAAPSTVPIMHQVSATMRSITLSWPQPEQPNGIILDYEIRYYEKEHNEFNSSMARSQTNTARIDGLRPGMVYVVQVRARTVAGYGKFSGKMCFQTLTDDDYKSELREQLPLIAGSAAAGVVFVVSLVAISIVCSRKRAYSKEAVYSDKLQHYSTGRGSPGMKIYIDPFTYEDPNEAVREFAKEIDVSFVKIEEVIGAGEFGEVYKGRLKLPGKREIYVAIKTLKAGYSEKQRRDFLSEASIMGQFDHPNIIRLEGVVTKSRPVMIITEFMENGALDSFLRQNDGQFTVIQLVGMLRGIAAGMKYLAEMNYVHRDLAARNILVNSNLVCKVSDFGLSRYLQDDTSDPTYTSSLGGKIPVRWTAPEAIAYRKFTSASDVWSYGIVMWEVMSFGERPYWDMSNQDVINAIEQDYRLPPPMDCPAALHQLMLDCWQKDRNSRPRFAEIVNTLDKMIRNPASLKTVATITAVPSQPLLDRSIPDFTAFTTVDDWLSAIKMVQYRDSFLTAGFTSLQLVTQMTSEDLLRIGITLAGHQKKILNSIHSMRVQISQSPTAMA
Assay: phosphorylation enrichment, bacterial display (enrichment ratio); higher = better substrate or ligand; peptides without Tyr show the background
Label label 1 for high-side phosphorylation enrichment (at or above 0.6) and label 0 for low-side phosphorylation enrichment (below it).

seq_string="AVRFIYTIDGS [DCX_Y105_G100A_YF]" category="label 0"
seq_string="FGFPGYQCKHF [TIMP3_Y177_S179C_YF]" category="label 0"
seq_string="PYRFIYMAVQH [PTPN11_Y515_Q510P]" category="label 1"
seq_string="FYDANYDGKEY [MAPRE2_Y162]" category="label 1"
seq_string="PSPMPCASCQM [FOXL2_Y215_Y215C]" category="label 0"
seq_string="QEALEYFMKQT [PIK3CA_Y1038_M1043T]" category="label 1"
seq_string="RFMVGYEMLAQ [GALT_Y339_K334R]" category="label 1"
seq_string="DLDATYRPMYS [JUP_Y701_M697L]" category="label 0"
seq_string="EVTRLYGSVCD [TC2N_Y154_K151T]" category="label 1"
seq_string="HEHVGYTTLNR [CHN1_Y148_Y143H]" category="label 0"
seq_string="DPYHVYIKNHV [KCNE3_Y95_R99H]" category="label 0"

* * *

Target: Fyn (UniProt P06241)
Sequence (P06241 whole entry, looked up): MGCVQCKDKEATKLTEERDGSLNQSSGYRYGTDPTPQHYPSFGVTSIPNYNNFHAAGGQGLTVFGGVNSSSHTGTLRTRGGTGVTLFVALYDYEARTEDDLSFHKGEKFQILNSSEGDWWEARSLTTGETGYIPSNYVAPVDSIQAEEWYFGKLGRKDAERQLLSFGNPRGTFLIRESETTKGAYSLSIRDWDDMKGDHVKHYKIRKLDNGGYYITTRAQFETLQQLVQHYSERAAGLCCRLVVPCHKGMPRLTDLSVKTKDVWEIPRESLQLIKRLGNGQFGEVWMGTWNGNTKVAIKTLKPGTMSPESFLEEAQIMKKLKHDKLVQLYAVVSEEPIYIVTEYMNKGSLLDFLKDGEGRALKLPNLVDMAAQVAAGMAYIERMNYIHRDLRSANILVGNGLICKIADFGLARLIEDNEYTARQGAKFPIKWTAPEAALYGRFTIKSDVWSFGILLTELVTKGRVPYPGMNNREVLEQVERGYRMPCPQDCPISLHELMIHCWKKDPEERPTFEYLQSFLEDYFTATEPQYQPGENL
Experiment: phosphorylation enrichment, bacterial display (enrichment ratio); higher = better substrate or ligand; peptides without Tyr show the background
Label rule met for high-side phosphorylation enrichment (at or above 0.4) and rule not met for low-side phosphorylation enrichment (below it).

seq_string="EPTPGYEVGQR [TSC2_Y1788]" tested_on="Fyn (UniProt P06241)" category="rule met"
seq_string="NTQRPYYKGGG [TYROBP_Y111]" tested_on="Fyn (UniProt P06241)" category="rule not met"
seq_string="FSCLPYGRLAY [SLC52A2_Y305]" tested_on="Fyn (UniProt P06241)" category="rule met"
seq_string="GGTPLYRDRQG [AGXT_Y194_M195R]" tested_on="Fyn (UniProt P06241)" category="rule not met"
seq_string="LADKPYTFEYY [FXN_Y118_D122Y]" tested_on="Fyn (UniProt P06241)" category="rule met"
seq_string="KVGPGYLGSRG [RET_Y826_G830R]" tested_on="Fyn (UniProt P06241)" category="rule not met"
seq_string="ERLWDCGMSSS [F8_Y1728_Y1728C]" tested_on="Fyn (UniProt P06241)" category="rule met"

* * *

Biological target: SHP2-C SH2;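 also: peptide library displayed on the E. coli surface as eCPX fusions, selected cells deep-sequenced, score is each peptide's frequency after selection divided by its frequency in the input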
Assay: SH2 binding enrichment of the phosphorylated peptide, bacterial display (enrichment ratio); higher = better substrate or ligand; peptides without Tyr show the background
Label fulfilled for high-side SH2 binding enrichment (at or above 0.7) and not fulfilled for low-side SH2 binding enrichment (below it).

seq_string="EWKQKYEESQS [MYH6_Y1462]" category="not fulfilled"
seq_string="KMTGRYEMYAR [UPB1_Y362]" category=fulfilled
seq_string="KRAAIYNPVIF [RHO_Y301_S297R_YF]" category=fulfilled
seq_string="TFMKKYPKVFL [CNBD1_Y70_Q69K]" category=fulfilled
seq_string="EPFELYCEMGS [CBL_Y371_Q367P_YF]" category="not fulfilled"
seq_string="LERYIYNREEY [HLA-DPB1_Y59_F64Y]" category="not fulfilled"
seq_string="VLNDAYENLTR [SYNE2_Y3255]" category=fulfilled
seq_string="DGKYSYLKVGH [GRM3_Y480_G475D]" category=fulfilled
seq_string="DFDNLYYWDQD [ERBB2_Y1221_A1216D]" category="not fulfilled"
seq_string="IFRASYFRKGG [ALK_Y1282_YF]" category="not fulfilled"
seq_string="ATRKAYGQALA [TKT_Y321]" category="not fulfilled"
seq_string="YKRAVYCIIGR [NUP93_Y391]" category=fulfilled

* * *

phosphorylation enrichment for assorted sequences
Tested on: AncSZ
Test: phosphorylation enrichment, bacterial display (enrichment ratio); higher = better substrate or ligand; peptides without Tyr show the background
metric: phosphorylation enrichment

seq_string="RKETFYTLSCR [GUCY2C_Y681]" tested_on=AncSZ quantitative_readout=1.32
seq_string="LLREWYVQDPF [SIX3_Y225_L226V_YF]" tested_on=AncSZ quantitative_readout=0.961
seq_string="LERDIYNREEF [HLA-DPB1_Y59_Y57D]" tested_on=AncSZ quantitative_readout=1.19
seq_string="KAEQLYIGVTV [EFHC2_Y509_E507Q]" tested_on=AncSZ quantitative_readout=1.84
seq_string="PLQNTYNFNVL [SLC4A1_Y553_K551N_YF]" tested_on=AncSZ quantitative_readout=0.891
seq_string="SEKISYVYMKR [SSX7_Y48_L43S]" tested_on=AncSZ quantitative_readout=0.912
seq_string="VQQVIYATGAL [MYH7_Y422]" tested_on=AncSZ quantitative_readout=0.932
seq_string="SIFKDYFRFNF [PLA2G2D_Y85_YF]" tested_on=AncSZ quantitative_readout=1.18
seq_string="ELANYYKLHHI [AK7_Y391]" tested_on=AncSZ quantitative_readout=0.647
seq_string="KAESWYQTKFE [KRT75_Y342_E337K_YF]" tested_on=AncSZ quantitative_readout=0.873
seq_string="NPQKSYFIHLY [WAS_Y83_R86H]" tested_on=AncSZ quantitative_readout=1.12
seq_string="DNLNNYVFQGQ [GRIN2A_Y978]" tested_on=AncSZ quantitative_readout=1.21
seq_string="PVGVLYKVKVF [PTS_Y128_YF]" tested_on=AncSZ quantitative_readout=1.45
seq_string="DQNVEYKGTVS [FHL1_Y117_W122S]" tested_on=AncSZ quantitative_readout=0.801

* * *

Tested on: c-Src
Assay: phosphorylation enrichment, bacterial display (enrichment ratio); higher = better substrate or ligand; peptides without Tyr show the background
phosphorylation enrichment for assorted sequences
metric: phosphorylation enrichment

seq_string="FSCLPYGRLAY [SLC52A2_Y305]" tested_on=c-Src quantitative_readout=1.84
seq_string="WIGRKYKKVRF [F8_Y442_R437W]" tested_on=c-Src quantitative_readout=0.619
seq_string="EEGNPSYSSAR [MCCC2_Y520_Y520S]" tested_on=c-Src quantitative_readout=0.542
seq_string="RPFFLYVAFHD [SGSH_Y174]" tested_on=c-Src quantitative_readout=0.43
seq_string="TTEHIYGDKFF [UBA7_Y524_N527K]" tested_on=c-Src quantitative_readout=4.65
seq_string="EWKQKYEESQS [MYH6_Y1462]" tested_on=c-Src quantitative_readout=0.395
seq_string="NELTYYCCKKD [CD59_Y87]" tested_on=c-Src quantitative_readout=3.91
seq_string="PIFLFYLMDLS [ITGB2_Y131_D128Y_YF]" tested_on=c-Src quantitative_readout=1.12
seq_string="TFFQMYDKGLV [IARS2_Y231_YF]" tested_on=c-Src quantitative_readout=0.537
seq_string="SEQNNYSRVAN [CWC22_Y797_R794Q]" tested_on=c-Src quantitative_readout=0.35
seq_string="FCIDHYLGKEM [G6PD_Y202_R198C_YF]" tested_on=c-Src quantitative_readout=0.394
seq_string="AFSLKYDQQTQ [SYTL4_Y366_E367D]" tested_on=c-Src quantitative_readout=0.48
seq_string="TGFRPYVCPFD [YY1_Y383_D380Y_YF]" tested_on=c-Src quantitative_readout=0.458
seq_string="DSEIRYLSADS [TTF1_Y476]" tested_on=c-Src quantitative_readout=0.51

* * *

Biological target: EPHB2 (UniProt P29323)
Sequence (P29323 whole entry, looked up): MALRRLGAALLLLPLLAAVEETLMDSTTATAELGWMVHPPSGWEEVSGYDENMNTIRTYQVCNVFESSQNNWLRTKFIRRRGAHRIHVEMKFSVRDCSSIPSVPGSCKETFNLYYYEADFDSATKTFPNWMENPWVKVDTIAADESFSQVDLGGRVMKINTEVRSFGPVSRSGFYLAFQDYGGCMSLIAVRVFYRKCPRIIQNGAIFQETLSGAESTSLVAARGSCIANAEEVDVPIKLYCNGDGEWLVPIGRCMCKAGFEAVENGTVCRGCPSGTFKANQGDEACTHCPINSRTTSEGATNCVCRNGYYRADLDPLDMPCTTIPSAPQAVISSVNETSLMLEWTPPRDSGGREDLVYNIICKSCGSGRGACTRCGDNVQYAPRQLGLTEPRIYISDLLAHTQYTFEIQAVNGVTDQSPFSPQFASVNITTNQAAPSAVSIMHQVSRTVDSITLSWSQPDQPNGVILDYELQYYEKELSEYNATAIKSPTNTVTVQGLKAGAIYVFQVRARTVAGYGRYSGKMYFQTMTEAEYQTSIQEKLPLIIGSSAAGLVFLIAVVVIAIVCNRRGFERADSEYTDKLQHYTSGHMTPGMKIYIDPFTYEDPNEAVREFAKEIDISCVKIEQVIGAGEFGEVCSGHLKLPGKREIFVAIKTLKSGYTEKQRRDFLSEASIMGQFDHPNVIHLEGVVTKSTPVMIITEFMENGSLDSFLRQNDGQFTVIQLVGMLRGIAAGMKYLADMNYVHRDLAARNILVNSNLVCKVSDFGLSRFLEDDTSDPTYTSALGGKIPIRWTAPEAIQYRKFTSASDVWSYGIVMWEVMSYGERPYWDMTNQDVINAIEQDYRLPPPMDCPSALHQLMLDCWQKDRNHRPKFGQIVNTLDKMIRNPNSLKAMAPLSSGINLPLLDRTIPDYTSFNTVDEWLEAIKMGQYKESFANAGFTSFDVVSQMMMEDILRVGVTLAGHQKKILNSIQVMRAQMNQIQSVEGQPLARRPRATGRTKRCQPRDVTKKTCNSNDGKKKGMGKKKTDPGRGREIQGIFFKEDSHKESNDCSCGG
Experiment: phosphorylation enrichment, bacterial display (enrichment ratio); higher = better substrate or ligand; peptides without Tyr show the background
metric: phosphorylation enrichment

seq_string="QFNPEYVQQAS [LRRC7_Y1058_H1054Y_YF]" quantitative_readout=0.778
seq_string="NKHTNYTMEHI [ACTN1_Y708]" quantitative_readout=0.401
seq_string="SVTCTYSPAFN [TP53_Y126_L130F]" quantitative_readout=0.59
seq_string="TTTQAYRVNER [PRKN_Y391_D394N]" quantitative_readout=0.31
seq_string="DENWFYMRAAS [RPS19_Y54_T55M]" quantitative_readout=0.654
seq_string="QDDYSYPSRQM [LDLR_Y847_G844D]" quantitative_readout=7.79
seq_string="ADKAAYLQSLN [MYH2_Y389]" quantitative_readout=0.561
seq_string="KRAAIYNPVIF [RHO_Y301_S297R_YF]" quantitative_readout=0.55
seq_string="DGMADYSDPSF [CDC5L_Y459_YF]" quantitative_readout=3.21
seq_string="AHPIIYEIIEA [PYKtide_E_2014]" quantitative_readout=20.4
seq_string="KLYRVYCDMNT [FGB_Y269_P265L]" quantitative_readout=0.702
seq_string="KSPDSYQKILF [ATM_Y1415_L1420F]" quantitative_readout=0.464
seq_string="VDSAHYQLLET [DTX3L_Y385_K386Q]" quantitative_readout=0.616
seq_string="SVTCTYSPAHN [TP53_Y126_L130H]" quantitative_readout=0.705
